Data provenance is patent US8283322B2.

# procedure-summary: physchem
# Type: physicochemical
# cond: organic solvent or mixture
property-measured: solubility

I am curious: what solubility value has been reported for COC(=O)C1=CO[C@@H](O)[C@@H]2C(CO)=CC[C@H]12 [Genipin, genipin] ?
2600 mM

* * *

# procedure-summary: physchem
# Assay type: physicochemical
# cond: buffer, pH 8
property-measured: half-life

What value of half-life has been reported for the following molecule? "COC(=O)C1=CO[C@@H](O)[C@@H]2C(CO)=CC[C@H]12"
18 h

* * *

# procedure-summary: physchem
# Type: physicochemical
# cond: buffer, pH 7
property-measured: half-life (h)
// return numeric value only (unit: h, not printed)

Bench note: what half-life did "COC(=O)C1=CO[C@@H](O)[C@@H]2C(CO)=CC[C@H]12" show?
60

* * *

# procedure-summary: physchem
# Type: physicochemical
# cond: buffer, pH 6
property-measured: half-life (h)
Value expressed in h; do not type the unit.

Requested field: half-life. Item: COC(=O)C1=CO[C@@H](O)[C@@H]2C(CO)=CC[C@H]12 [Genipin, genipin]
135

* * *

# procedure-summary: physchem
# Assay type: physicochemical
# cond: buffer, pH 4
property-measured: half-life
Write the figure, then the unit, nothing else.

Quick check: half-life of COC(=O)C1=CO[C@@H](O)[C@@H]2C(CO)=CC[C@H]12 [Genipin, genipin] ?
214 h

* * *

# Test system: homogenized annulus tissue
# cond: bovine
T1/2 values by entry

// lookup T1/2 for "COC(=O)C1=CO[C@@H](O)[C@@H]2C(CO)=CC[C@H]12"
10 to 18 min

Reported T1/2 for "O=C[C@H](O)[C@@H](O)CO" : what is it?
150 min

Using the record for O=CCCCC=O [Glutaraldehyde, reference compound] , report its T1/2.
<5 min

What value of T1/2 has been recorded for this entry: "CC(=O)C=O"
14 to 20 min
